assay: Acute toxicity, intraperitoneal (Litchfield-Wilcoxon); type: in vivo; details: mouse, in vivo, ip, Swiss ICR mice of both sexes, 25 ± 2 g, read-out: Lethal Dose 50 (LD50)
Value Kind: LD50 (mg/kg)
Give bare numbers, in mg/kg.

Looking up COc1cc(C(O)C2CC(C)=CCN2C)cc(OC)c1OC (stereo not shown) [Product VIII] , I see its LD50 listed as 201
